experimental-protocol: Mean residence time in Sprague-Dawley rat at 10 mg/kg, po by LC-MS analysis
Type: ADME, organism-based
recorded-conditions: in vivo
test-readout: MRT (h)
Use h as the unit, but write only the number.

GET /value?item= `COCCCNC(=O)c1cc2c(N3CCOCC3)nc(-c3cnc(N)cc3C(F)(F)F)nn2c1C` &field=MRT returns 1.7

* * *

experimental-protocol: Half life in Sprague-Dawley rat at 5 mg/kg, iv by LC-MS analysis
Type: ADME, organism-based
recorded-conditions: in vivo
test-readout: half-life
Answer format reminder: number followed by unit.

half-life for `COCCCNC(=O)c1cc2c(N3CCOCC3)nc(-c3cnc(N)cc3C(F)(F)F)nn2c1C` is 30 min
